# systemTested: human Clk2 (Homo sapiens)
# Construct: purchased Life Technologies PV4279
# Sequence (P49760 whole entry): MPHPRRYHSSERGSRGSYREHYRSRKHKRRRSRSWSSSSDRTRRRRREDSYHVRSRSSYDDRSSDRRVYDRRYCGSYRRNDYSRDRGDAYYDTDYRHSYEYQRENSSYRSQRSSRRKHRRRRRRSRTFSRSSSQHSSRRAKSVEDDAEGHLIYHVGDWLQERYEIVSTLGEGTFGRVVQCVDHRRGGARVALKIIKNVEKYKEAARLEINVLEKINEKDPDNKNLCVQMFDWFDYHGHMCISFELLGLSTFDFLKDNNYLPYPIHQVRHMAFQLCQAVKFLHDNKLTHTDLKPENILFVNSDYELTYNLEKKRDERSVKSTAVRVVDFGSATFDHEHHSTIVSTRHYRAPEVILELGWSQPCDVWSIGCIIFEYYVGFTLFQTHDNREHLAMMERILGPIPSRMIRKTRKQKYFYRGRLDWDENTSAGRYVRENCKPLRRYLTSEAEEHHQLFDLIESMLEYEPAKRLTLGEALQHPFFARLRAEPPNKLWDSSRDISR
# assayInfo: Clk2 kinase inhibition assay (15 μM ATP)
# Type: biochemical
# conditionNotes: 250 nM compound
measuredEndpoint: inhibition at 0.25 µM (%)

Past entries and their recorded results:
molecule | systemTested | displayUnit | inhibition at 0.25 µM
COc1ccc2sc(C(=O)N(C)Cc3cccc(F)c3OC)cc2c1 [Compound 13b] | human Clk2 (Homo sapiens) | % | 17
COc1ccc2sc(C(=O)N(C)Cc3cc(C)cc(F)c3)cc2c1 [Compound 15b] | human Clk2 (Homo sapiens) | % | 72.5
COc1ccc2sc(C(=O)NCc3cc(F)ccc3F)cc2c1 [Compound 11a] | human Clk2 (Homo sapiens) | % | 3

A = COc1ccc2sc(C(=O)N(C)Cc3ccc(OC)c(F)c3)cc2c1 [Compound 12b]
B = COc1ccc2sc(C(=O)N(C)Cc3cccc(Cl)c3)cc2c1 [Compound 7b]
Hi there, can you help? I need to know whether A or B has lower measured inhibition at 0.25 µM. Indicate your choice by writing its label. A
(A: 39.7%, B: 73.4%)

I = COc1ccc2sc(C(=O)N(C)Cc3cc(F)ccc3OC)cc2c1 [Compound 14b]
II = COc1ccc2sc(C(=O)NCc3cc(F)cc(F)c3)cc2c1 [Compound 10a]
III = COc1ccc2sc(C(=O)N(C)Cc3ccc(F)cc3F)cc2c1 [Compound 9b]
Arrange these 3 molecules in increasing order of inhibition at 0.25 µM. Put the labels in the requested order and write them down. III, II, I
(III: 16.9%, II: 30%, I: 44%)

1 = COc1ccc2sc(C(=O)N(C)Cc3cc(F)ccc3F)cc2c1 [Compound 11b]
2 = COc1ccc2sc(C(=O)NCc3cc(F)ccc3OC)cc2c1 [Compound 14a]
Endpoint returns the identifier whose inhibition at 0.25 µM is numerically larger, either 1 or 2 . Give the label under which the chosen entry appears. 1
(1: 52.7%, 2: 24.5%)

P = CCN(Cc1cccc(F)c1)C(=O)c1cc2cc(OC)ccc2s1 [Compound 1c]
Q = COc1ccc2sc(C(=O)NCc3cccc(F)c3OC)cc2c1 [Compound 13a]
Please compare: P and Q . Report which one has the smaller inhibition at 0.25 µM value. I would appreciate it if you answered with the label of your choice. Q
(Q: 26.9%, P: 42.4%)

----------
# systemTested: Clk1 (Homo sapiens, UniProt P49759)
# Sequence (P49759 whole entry): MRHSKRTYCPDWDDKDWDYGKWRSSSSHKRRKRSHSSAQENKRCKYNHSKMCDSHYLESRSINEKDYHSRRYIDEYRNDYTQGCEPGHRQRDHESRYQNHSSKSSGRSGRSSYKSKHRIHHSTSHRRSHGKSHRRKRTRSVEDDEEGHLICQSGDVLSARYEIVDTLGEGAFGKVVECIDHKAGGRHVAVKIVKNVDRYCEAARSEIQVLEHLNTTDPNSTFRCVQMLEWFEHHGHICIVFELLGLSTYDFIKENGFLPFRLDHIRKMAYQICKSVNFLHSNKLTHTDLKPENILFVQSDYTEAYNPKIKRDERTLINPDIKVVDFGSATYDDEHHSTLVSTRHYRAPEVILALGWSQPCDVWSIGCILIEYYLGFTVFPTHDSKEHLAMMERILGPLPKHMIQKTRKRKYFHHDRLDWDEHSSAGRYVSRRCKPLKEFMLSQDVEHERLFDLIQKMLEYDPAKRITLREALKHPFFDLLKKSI
# assayInfo: Clk1 kinase inhibition assay (15 μM ATP)
# Assay type: biochemical
# Set-up: purchased Life Technologies PV3315
# conditionNotes: 100 nM compound, 15 μM ATP
measuredEndpoint: inhibition at 0.1 µM (%)

For orientation, consider the following solved cases.
compound | systemTested | measuredResult
COc1ccc2sc(C(=O)NCc3cc(F)cc(F)c3)cc2c1 [Compound 10a] | Clk1 (Homo sapiens, UniProt P49759) | 62.2
COc1ccc2sc(C(=O)N(C)Cc3cc(F)cc(F)c3)cc2c1 [Compound 10b] | Clk1 (Homo sapiens, UniProt P49759) | 88.8
COc1ccc2sc(C(=O)N[C@H](C)c3ccc(F)cc3)cc2c1 | Clk1 (Homo sapiens, UniProt P49759) | 54
COc1ccc2sc(C(=O)NCc3cc(F)ccc3OC)cc2c1 [Compound 14a] | Clk1 (Homo sapiens, UniProt P49759) | 43.2
COc1ccc2sc(C(=O)NCc3cc(C)cc(F)c3)cc2c1 [Compound 15a] | Clk1 (Homo sapiens, UniProt P49759) | 42

P = COc1ccc2sc(C(=O)NCc3cc(F)ccc3F)cc2c1 [Compound 11a]
Q = COc1ccc2sc(C(=O)NCc3cccc(F)c3OC)cc2c1 [Compound 13a]
R = COc1ccc2sc(C(=O)N(C)Cc3cc(F)ccc3OC)cc2c1 [Compound 14b]
S = COc1ccc2sc(C(=O)N(C)Cc3cc(C)cc(F)c3)cc2c1 [Compound 15b]
# rank_down: sort by inhibition at 0.1 µM, max first Please reply with the labels ordered as requested. Many thanks. S, R, P, Q
